Please provide measured normalized growth for the entries that follow.
Assay: chemical genetic growth profiling, strain panel (AID 1159580);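 also: tested at 20 µM; growth read once vehicle control cultures reached saturation at 30 °C; 1 = growth at the plate median or of vehicle wells; lower values mean less growth of the strain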
Settings: S. cerevisiae deletion strains, growth OD, locus YLR039C, strain RIC1, stronger effect = lower value
Screen size: about 5,500 compounds; about 2,000 (36%) were called active. About 18% were inconclusive and are not listed. This is one part of the list.
One number for each entry.

Sample records with normalized growth:
Nc1nc2c(ncn2C2C[C@H](O)[C@@H](CO)O2)c(=O)[nH]1 (some centres not stated) :: 1.02
c1ccc2c3c([nH]c2c1)CNCC3 :: 1.01

// for each compound in input: emit normalized growth
1. O=C1CCCC2C3CC(CN12)[C@@H]1CCCCN1C3 (some centres not stated)
2. C1CCN2C[C@@H]3C[C@H](CN4CCCC[C@@H]34)[C@H]2C1
3. CN(C)C=Nc1nnc(Sc2ncccc2[N+](=O)[O-])s1
4. O=C(NNC(=S)Nc1ccc(F)cc1)c1ccccc1Cl

1.04
1.06
1.03
0.933

# per-item lookup of normalized growth; items listed below
1. CCCCC1=NC2(CCCC2)C(=O)N1Cc1ccc(-c2ccccc2-c2nn[nH]n2)cc1
2. CC1(C)CC2C1(O)CCC1(C)C=CC(O)C21CO (configuration not stated)
3. c1ccc2c(c1)CCc1c-2[nH]c2ccccc12
4. CN1CCCC12NCCc1c2[nH]c2ccccc12 (configuration not stated)

1: 0.969; 2: 0.945; 3: 0.162; 4: 0.976

Please go through the list and note normalized growth for each compound.
1. O=C1C=CC2=C3c4cc(O)c(O)cc4CC3(O)COC2=C1O (configuration not stated)
2. COC(=O)c1cc(OC)c(OC)cc1-n1c(C)ccc1C
3. CSCCC(NC=O)C(=O)NC(C)C(=O)O (configuration not stated)
4. Nc1ncnc2c1ncn2C1O[C@H](COP(=O)(O)O)[C@@H](O)[C@H]1O (some centres not stated)
5. Cc1onc(NC(=O)NC(=O)c2c(F)cccc2Cl)c1Br
6. NC(=NCCC[C@H](N)C(=O)O)NC(CCC(=O)O)C(=O)O (some centres not stated)
7. Cc1c(O)c(O)cc2c1CC=C1[C@@]2(C)CC[C@@]2(C)C3C[C@](C)(C(=O)O)CC[C@]3(C)CC[C@]12C (some centres not stated)

0.848
0.993
1.01
1.04
1
1
0.616

# batch: return normalized growth for each of the 3 compounds below
1. Nc1ncnc2c1ncn2[C@@H]1O[C@H](CO)[C@@H](O)[C@H]1O
2. O=C1C=CC2=C3c4cc(O)c(O)cc4C[C@@]3(O)COC2=C1
3. NCC(CC(=O)O)c1ccc(Cl)s1 (configuration not stated)

1. 0.95
2. 1.07
3. 1.01

Would you mind giving normalized growth for every compound in the list below?
1. Cc1c(Cl)cccc1NC(=S)Nc1ccc(Cl)cc1C(=O)c1ccccc1
2. C=C(C)[C@H]1CC=C(C(=O)O)CC1

1. 0.907
2. 0.971

* * *

Experiment: chemical genetic growth profiling, strain panel (AID 1159580)
Conditions: S. cerevisiae deletion strains, growth OD, locus YNL006W, strain LST8
The whole screen tested about 5,500 compounds, of which about 2,000 (36%) were called active. Another 18% or so got no clear call; they are omitted. Cut-off read from the data, not from the text of the source: active = normalized growth mostly below about 0.91 (no sharp cut-off); inconclusive = no clear call, values can overlap the other calls; inactive = mostly above about 0.92. Some of the results follow.
Response enum: 1 = active, 0 = inactive

Before answering, review these 5 worked examples.
Fc1cccc(F)c1NC(=S)Nc1cc(C(F)(F)F)cc(C(F)(F)F)c1 :: 0
CCOc1ccc(/C=C(\C)[N+](=O)[O-])cc1OC :: 0
O=[N+]([O-])/C=C/c1ccc(F)cc1 :: 1
O=c1c(Cl)c(-n2cccn2)cnn1-c1ccc(Cl)cc1Cl :: 0
CSc1ccc(/C=C(\C)[N+](=O)[O-])cc1 :: 1

Field: next molecule
So what was the verdict on `FC(F)(F)c1cccc(NC(=S)Nc2ccccc2)c1` in this test? 0

* * *

Experiment: chemical genetic growth profiling, strain panel (AID 1159580);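 also: tested at 20 µM; growth read once vehicle control cultures reached saturation at 30 °C; 1 = growth at the plate median or of vehicle wells; lower values mean less growth of the strain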
Settings: S. cerevisiae deletion strains, growth OD, locus YBR136W, strain MEC1, stronger effect = lower value
The whole screen tested about 5,500 compounds, of which about 2,000 (36%) were called active. Inconclusive results (about 18%) are left out. The list shows a part of the results.
Assignment: determine reported normalized growth for the given molecules.
Numbers only.

Here are 8 molecules together with their reported answers.
Cc1cc(Br)ccc1-n1c(Sc2c([N+](=O)[O-])cc(C(F)(F)F)cc2[N+](=O)[O-])nc2ccccc2c1=O :: 0.978
CSc1ccc(/C=C(\C)[N+](=O)[O-])cc1 :: 0.0817
CCCc1c(C(=O)NC2Cc3ccccc3C2)cnn1-c1ccccc1 :: 0.99
O=C(c1ccc2ccccc2c1)N1CCN(c2ccnc3cc(Cl)ccc23)CC1 :: 0.997
Cc1cc(Cl)ccc1NC(=S)NNC(=S)Nc1ccc(F)cc1 :: 0.97
CC(=O)Nc1ccc([N+](=O)[O-])cc1[N+](=O)[O-] :: 0.922
CCCc1c(C(=O)NNc2cccc(Cl)c2)cnn1-c1ccccc1 :: 0.982
O=C(Nc1ccc(C(F)(F)F)cc1)N1CCN(c2ccnc3cc(Cl)ccc23)CC1 :: 0.973

Respectfully, I request normalized growth for each entry included below.
1. O=[N+]([O-])/C=C/c1ccc(F)cc1
2. CCCc1c(C(=O)Sc2ccccn2)cnn1-c1ccc(Cl)cc1

1: 0.0978; 2: 0.964

Kindly note the recorded normalized growth for OC(CNCc1ccc(Cl)cc1)CO/N=C\C1=C(Cl)c2cc(Cl)ccc2OC1 (stereo unspecified) , which is 0.957

* * *

For each entry below, report its normalized growth value.
Assay: chemical genetic growth profiling, strain panel (AID 1159580);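 also: tested at 20 µM; growth read once vehicle control cultures reached saturation at 30 °C; 1 = growth at the plate median or of vehicle wells; lower values mean less growth of the strain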
Details: S. cerevisiae deletion strains, growth OD, locus YFL009W, strain cdc4, stronger effect = lower value
About 2,000 (36%) of roughly 5,500 compounds were called active. Inconclusive results (about 18%) are left out. The list shows a part of the results.

O=C(c1ccccc1)c1cc(Cl)ccc1NC(=S)Nc1ccc(F)cc1 :: 0.986 (inactive)
O=C(NC(=S)Nc1cccc(C(F)(F)F)c1)c1ccc2nonc2c1 :: 0.944 (inactive)

Hi! Can you tell me normalized growth for each of these compounds?
1. CCCc1c(C(=O)NNc2cccc(Cl)c2)cnn1-c1ccccc1
2. N#CCC(=O)NNC(=S)Nc1ccc(Cl)c(Cl)c1
3. Cc1c(C)c(C)c(CSC(N)=Nc2ccc(F)cc2)c(C)c1C
4. COc1ccc(C(=O)CSC2=NCCc3ccccc32)cc1

1: 0.986 (inactive); 2: 0.98 (inactive); 3: 1.01 (inactive); 4: 0.968 (inactive)

* * *

Assay: chemical genetic growth profiling, strain panel (AID 1159580);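 also: tested at 20 µM; growth read once vehicle control cultures reached saturation at 30 °C; 1 = growth at the plate median or of vehicle wells; lower values mean less growth of the strain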
Conditions: S. cerevisiae deletion strains, growth OD, locus YGR252W, strain gcn5, stronger effect = lower value
In all, about 5,500 compounds went through this assay and about 2,000 (36%) were called active. About 18% were inconclusive and are not listed. Some of the results follow.
Note to self: class = bucket of normalized growth, per Low (below 0.9), Mid (0.9 to below 1), High (1 or more)

CCC[C@H]1CC2=C(C[C@@H](CC)CC3=C1C(=O)OC3=O)C(=O)OC2=O :: Mid
Oc1c(Cl)cc(Cl)c2cccnc12 :: Low
O=C(O[C@@H]1Cc2c(O)cc(O)cc2O[C@@H]1c1cc(O)c(O)c(O)c1-c1c([C@H]2Oc3cc(O)cc(O)c3C[C@H]2O)cc(O)c(O)c1O)c1cc(O)c(O)c(O)c1 :: Low

The entry to classify is `O=C(O)CF` ; which class holds it? Low

Exercise: read the entry CCCC(C)C1(CC)C(=O)NC(=O)NC1=O (stereo unspecified) and state which class it falls under. High

Class? Entry: `C=C(CC)C(=O)c1ccc(OCC(=O)O)c(Cl)c1Cl` High

Just checking, what class would you give COC(=O)C[C@H]1C(C)(C)C(=O)[C@@H]2CC3=C4CC(=O)O[C@@H](c5ccoc5)[C@]4(C)CCC3[C@@]1(C)C2=O (stereo partly specified) here? High

Dear colleague, I would appreciate it if you could identify the bin for `Nc1ccc(S(=O)(=O)Nc2ccccn2)cc1` and reply at your convenience. High

Input O=C(O)CCCCC1CCSS1 (stereo unspecified) ; output its category Low

Where would `CC(=O)Oc1ccc(Cl)c2cccnc12` land among the classes by reported normalized growth? Low

Category of CCCC(C)C1(CC)C(=O)N=C(S)NC1=O (stereo unspecified) : Low

Into which category would you place `O[N+]1=CC=CCC1=S.On1ccccc1=S.[Zn]` ? Low

Input C1CCN2CC3CC(CN4CCCCC34)C2C1 (stereo unspecified) ; output its category Low

GET /class?item= `OC[C@@H](O)[C@@H](O[C@@H]1O[C@H](CO)[C@@H](O)[C@H](O)[C@H]1O)[C@H](O)[C@@H](O)CO` High

Each molecule maps to one class by normalized growth. Which class for `NC[C@H](O)c1ccc(O)c(O)c1` ? Mid
